Test system: MDA-MB-435 melanoma
Assay: NCI-60 one-dose screen, 48 h (100 = growth as untreated, 0 = no growth, -100 = all killed)
Conditions: 10 µM unless noted
Compounds without any hit were thinned out: in the full panel of roughly 83,000, 20% have a hit.
Given measured growth, output met if it is greater than or equal to 90% and not met if not.

Decide: is the reported value of growth for CCCCCCCCCCCCCCCCCC1OCC(COC(=O)O[C@@H](C(=O)O[C@H]2C[C@@]3(O)[C@@H](OC(=O)c4ccccc4)[C@@H]4[C@]5(OC(C)=O)CO[C@@H]5C[C@H](O)[C@@]4(C)C(=O)[C@H](OC(C)=O)C(=C2C)C3(C)C)[C@@H](NC(=O)c2ccccc2)c2ccccc2)O1 (stereo not given in full) equal to or greater than 90%?
not met

Please tell me: is the compound CO[C@H]1[C@H](O[C@@H]2C[C@@H]3C/C=C/C(=O)O[C@@H](CO)C[C@H](O)[C@@H]4C[C@H](C)[C@H](C/C=C\C=C\[C@H](C)C[C@H](C2)O3)O4)O[C@@H](C)[C@H](O)[C@H]1O at or over 90% in terms of growth?
not met

API: above_or_equal(metric=growth, cutoff=90%) for item Cc1c2ccncc2c(C)c2c1[nH]c1ccccc12
not met

// inclusive: growth at least 90%? input: CCC1CCC(=O)O1 (stereo not given)
met

###

Test system: OVCAR-4 ovarian
Assay: NCI-60 one-dose screen, 48 h (100 = growth as untreated, 0 = no growth, -100 = all killed)
Details: 10 µM unless noted
This is part of a sample that, as a whole, favours compounds with a hit. Of some 83,000 tested, about 20% had one in any assay.
measuredProperty: growth (%)
Expressed in %, but write only the number.

Field: example entries. Status: answers known.
growth lookup needed for C[C@]12CC[C@H]3[C@@H](CC=C4c5nc(N)sc5CC[C@@]43C)[C@@H]1CC[C@@H]2O , thanks.
95.7

Which growth value is on record for CC1=C([Te]c2ccccc2)C(=O)c2ccccc2C1=O ?
-72.4

What value of measured growth is listed for CC[C@H](CC[C@@H](C)[C@H]1CC[C@H]2[C@@H]3CC[C@H]4C[C@]5(CC[C@]4(C)[C@H]3CC[C@]12C)OO[C@](C)(C(F)(F)F)O5)C(C)C ?
88.4

Look up growth: Cc1ccc(NC2=N[C@]34CC(=O)CC[C@]3(C)[C@H]3CC[C@]5(C)C(=O)CC[C@H]5[C@@H]3C[C@@H]4S2)c(C)c1
59.6

Look up growth for this compound: CC[C@H](C)[C@H]1O[C@]2(C=C[C@@H]1C)C[C@@H]1C[C@@H](C/C=C(\C)[C@@H](O[C@H]3C[C@H](OC)[C@@H](O[C@H]4C[C@H](OC)[C@@H](NC)[C@H](C)O4)[C@H](C)O3)[C@@H](C)/C=C/C=C3\CO[C@@H]4[C@H](O)C(C)=C[C@@H](C(=O)O1)[C@]34O)O2
-1.85

Record request: growth value, item O=c1[nH]c(=O)[nH]c(=O)[nH]1
119

More entries:
I have this compound here, C[C@@]12CCCc3coc(c31)C(=O)c1cc3c(cc12)C(=O)C1=C(NCCS1(=O)=O)C3=O , and I need its recorded growth.
-89.3

Look at this compound and give its reported growth. OCCNC1CCCCC1
111

Dear colleague, I am looking for the recorded growth of the following compound: O=C(Cc1ccccc1)NC(O)C(Cl)(Cl)Cl (stereo not drawn)
105

Look at this compound and give its reported growth. CCN1C(=O)NC(=O)C(C)(N2C(=O)c3c(F)c(F)c(F)c(F)c3C2=O)C1=O (stereo not drawn)
1.91

Can you look up the measured growth of Cc1cc(N(CCCl)CCCl)ccc1C=Nc1ccc(-c2csc(-c3ccccc3)n2)cc1 for me?
89.6

Which growth is reported for this compound? C[C@]12CCc3nc(-c4ccc(O)c(O)c4)sc3C1=CC[C@@H]1[C@@H]2CC[C@]2(C)C(=O)CC[C@@H]12
67.1

Give its growth value. Item: C/C(=N/OC(=O)N(C)C)c1ccc(Cl)c(Cl)c1
119

Reported growth, compound O=C(O)c1ccccc1N(CCO)CCCl : ____
108

# input compound: CN(C)c1ccc([N+](=O)[O-])c([N+](=O)[O-])c1 ; wanted: its growth
101

Any idea what growth was measured for C[C@]12CCC(=O)C[C@@H]1CC[C@@H]1[C@@H]2CC[C@]2(C)[C@@H](OC(=O)N(CCCl)N=O)CC[C@@H]12 ?
72.6

growth lookup needed for O=S1(=O)OCCO1 , thanks.
99.4

Need growth of Cc1ccc(C(=O)O[C@H](C(=O)O)[C@H](OC(=O)c2ccc(C)cc2)C(=O)O)cc1 , thanks.
103

###

System: KM12 colon
Experiment: NCI-60 one-dose screen, 48 h
Conditions: 10 µM unless noted
This is part of a sample that, as a whole, favours compounds with a hit. Of some 83,000 tested, about 20% had one in any assay. Active and inactive are the calls of the source. Rule for the calls: active = growth percent below 10; inactive = the rest.
Choose the fitting class; nothing outside active, inactive is accepted.

Consider the worked cases shown below.
Name the outcome recorded for CC1=CC(=Nc2ccc(N(CCCl)CCCl)cc2)C=C(C)C1=O in the assay.
inactive

Assay outcome for CC[C@H](C)[C@H](NC(=O)[C@H]1CCCCN1C)C(=O)N(C)[C@H](C[C@@H](OC(C)=O)c1nc(C(=O)NC23C4C5C2C2C3C4C52C(=O)OC)cs1)C(C)C (stereo not given in full) : what was it?
active

Assay outcome for CC12CCC3C4CCC(=O)C=C4CCC3C1CC1CC(=O)OC12 (stereo not given) : what was it?
inactive

What call does the record list for COC12CC3C4=CCOC5CC(=O)N6c7ccccc7C1(CCN2C4)C6C53 (stereo not given) ?
inactive

Short answer needed: outcome of this test for C[N+]12CCC34C5=CC(=O)C(=O)C=C5[N+]5(C)C(=O)CC6OCC=C(C1)C(CC32)C6C45 (stereo not given) ?
inactive

Next:
For O=S(=O)(c1ccc(O)cc1)c1ccccc1O , what call appears in the results of this test?
inactive

###

Tested on: MCF7 breast
Assay: NCI-60 one-dose screen, 48 h (100 = growth as untreated, 0 = no growth, -100 = all killed)
Settings: 10 µM unless noted
Experimental: Growth inhibition of the MCF7 human tumor cell line is measured as a screen for anti-cancer activity. Cells are grown in 96 well plates and exposed to the test compound for 48 hours. Compounds are tested at a single concentration, which is 10^-5 M for most compounds. The reported endpoint is percent growth (GI% or GIPRCNT), where numbers from 0 - 100% represent growth inhibition, and numbers from -100% - 0 represent cell death. For example, a value of 40 represents 60% growth inhibition. […]
This is part of a sample that, as a whole, favours compounds with a hit. Of some 83,000 tested, about 20% had one in any assay.
In this section we review reported growth values for a set of molecules.
Field format: number, assumed %, no unit text.

Entry C=CCOC(=O)C(Br)CC (stereo unspecified) : reported growth = ?
103

For the molecule shown here, O=C1NC(=O)C(=C/C=C/c2ccccc2)C(=O)N1 , give the reported growth.
14.2

Given O=[N+]([O-])c1ccc(P(=O)(O)O)cc1 , state its recorded growth.
91.2

Return reported growth; argument: Cc1ccccc1-n1c(/C=C\c2ccccn2)nc2ccccc2c1=O
66.9

Find the recorded growth belonging to COc1cc(C2C3=C(CCCC3=O)N(CCO)c3cc4c(cc32)CCC4)cc(OC)c1OC (stereo unspecified) and report it.
23

--- query ---
For Cc1nc2ccccc2c(=O)n1-c1ccccc1F , what is its reported growth?
93.9

###

Test system: MDA-MB-435 melanoma
Test: NCI-60 one-dose screen, 48 h (100 = growth as untreated, 0 = no growth, -100 = all killed)
Conditions: 10 µM unless noted
Compounds without any hit were thinned out: in the full panel of roughly 83,000, 20% have a hit.
Reported values of growth for individual entries
Write the answer as a number in %, unit excluded.

Checklist item: growth tested on MDA-MB-435 melanoma, entry COC(=O)C12C3C4C1C1C2C3C41NC(=O)c1csc([C@@H](C[C@H](C(C)C)N(C)C(=O)[C@@H](NC(=O)[C@H]2CCCCN2C)C2CC2)OC(C)=O)n1 (stereo partly drawn) , value?
-29.7

What reported growth corresponds to CC[C@H](C)[C@H](NC(=O)[C@H]1CCCCN1C)C(=O)N(C)[C@H](C[C@@H](OC(C)=O)c1nc(C(=O)NC23C4C5C2C2C3C4C52C(=O)OC)cs1)C(C)C (stereo partly drawn) on MDA-MB-435 melanoma?
-0.902

Find the measured growth: item CCOP(=O)(OCC)C(=O)N(CC)CC , target or system MDA-MB-435 melanoma.
97.8

Give MDA-MB-435 melanoma growth for CCCN1C(=O)NC(=O)C(CC)(N2C(=O)c3c(F)c(F)c(F)c(F)c3C2=O)C1=O (stereo not drawn)
-60.3

Checklist item: growth tested on MDA-MB-435 melanoma, entry CCC(=O)C(CC(C)[N+](C)(C)C)(c1ccccc1)c1ccccc1 (stereo not drawn) , value?
104

Please state recorded growth (tested on MDA-MB-435 melanoma) of NC(=O)Oc1cc(OC(N)=O)cc(N(CCCl)CCCl)c1
65.2

Under MDA-MB-435 melanoma: growth value of COC12CC3(C)C(C4=CC(=O)OC4)CCC3(O)C3CCC4=CC(=O)CCC4(CO1)C32 (stereo not drawn) ?
106
